Tested on: MCF10A
Assay: 5+ nucleoli phenotype percent effect (relative to siNT 0% and siKIF11 100%); higher = more cells with five or more nucleoli
Condition Description: 20 nM; 72 h
Recorded Metric: 5+ nucleoli phenotype percent effect (%)
A number alone suffices; assume %.

Specify measured 5+ nucleoli phenotype percent effect for GAUGAUGAUGGCAGCAAAUUCUGAAA [hsa-miR-1272] . 4.28

Answer with the recorded 5+ nucleoli phenotype percent effect for the sequence listed here: UGGGGGUGUGGGGAGAGAGAG [hsa-miR-7110-5p] -6.75

Query 5+ nucleoli phenotype percent effect for UGAGGCCCUUGGGGCACAGUGG [hsa-miR-5008-5p] -8.69

For the sequence GGGAGGUGUGAUCUCACACUCG [hsa-miR-3689d] , give its measured 5+ nucleoli phenotype percent effect value. 10.8

Provide measured 5+ nucleoli phenotype percent effect value, entry: CAAAGUCCUUCCUAUUUUUCCC [hsa-miR-6507-3p] -15.5

Give the measured 5+ nucleoli phenotype percent effect for UGUAAACAUCCUACACUCAGCU [hsa-miR-30b-5p] 34.3

Supply reported 5+ nucleoli phenotype percent effect belonging to this sequence: AGGUUGUCCGUGUUGUCUUCUCU [hsa-miR-494-5p] 18.5

Give the reported 5+ nucleoli phenotype percent effect for this sequence. CUGAACUAGAGAUUGGGCCCA [hsa-miR-7158-3p] -10.2

Further cases:
Indicate the recorded 5+ nucleoli phenotype percent effect value for this sequence: AGGAGGACAAGUUGUGGGAU [hsa-miR-7154-3p] -9.57

Report 5+ nucleoli phenotype percent effect, nothing else, for this sequence: GGCGGCGGCGGAGGCGGGGG [hsa-miR-3960] -17.5

Report 5+ nucleoli phenotype percent effect for UCACCCUGCAUCCCGCACCCAG [hsa-miR-3620-3p] 11.8

----------
Tested on: MCF10A
Assay: one-nucleolus phenotype percent effect (relative to siNT 0% and siNOL11 100%); higher = more cells with one nucleolus (ribosome biogenesis inhibition)
Condition Description: 20 nM; 72 h
Measured one-nucleolus phenotype percent effect accompanies every entry in the list below.
Number only, in %; omit the unit.

Please give the documented one-nucleolus phenotype percent effect of AGAUCAGAAGGUGAUUGUGGCU [hsa-miR-383-5p] 68.7

Please indicate one-nucleolus phenotype percent effect recorded for UGGGUGGUCUGGAGAUUUGUGC [hsa-miR-1293] -46.3

***
Tell me its one-nucleolus phenotype percent effect given UCUUACUCCCUCAGGCACUG [hsa-miR-550b-3p] as the entry. 1.54

Return one-nucleolus phenotype percent effect for the following sequence: GUGUUAAUUAAACCUCUAUUUAC [hsa-miR-2053] -1.87

# return recorded one-nucleolus phenotype percent effect for input CCAGUUACCGCUUCCGCUACCGC [hsa-miR-935] 15.8

Kindly indicate its recorded one-nucleolus phenotype percent effect. Item: AAAGCUGGGUUGAGAAGG [hsa-miR-320e] 3.44

Specify one-nucleolus phenotype percent effect for UGUGUACACACGUGCCAGGCGCU [hsa-miR-3177-5p] and stop. -22.2

Tell me its one-nucleolus phenotype percent effect given GUGCAUUGCUGUUGCAUUGC [hsa-miR-33b-5p] as the entry. -2.4

Please give the documented one-nucleolus phenotype percent effect of AGCUGUCUGAAAAUGUCUU [hsa-miR-626] 2.9

Tell me one-nucleolus phenotype percent effect reported for UAGCAAUACAGUACAAAUAUAGU [hsa-miR-4703-5p] -22

State, in one line, measured one-nucleolus phenotype percent effect of UUCUUUGUUUUUAAUUCACAG [hsa-miR-6844] -15.7

Provide one-nucleolus phenotype percent effect value for the following sequence: GAACGCGCUUCCCUAUAGAGGGU [hsa-miR-523-3p] -18.2

----------
Tested on: MCF10A
Assay: 5+ nucleoli phenotype percent effect (relative to siNT 0% and siKIF11 100%); higher = more cells with five or more nucleoli
Condition Description: 20 nM; 72 h
Recorded Metric: 5+ nucleoli phenotype percent effect (%)
Use % as the unit, but write only the number.

In one line, give reported 5+ nucleoli phenotype percent effect of the entry AAGGGACAGGGAGGGUCGUGG [hsa-miR-7845-5p] . 2.91

State its 5+ nucleoli phenotype percent effect for this sequence: CAAGUCUUAUUUGAGCACCUGUU [hsa-miR-1264] 21.1

For ACUGGACUUGGAGCCAGAAG [hsa-miR-378f] , write its 5+ nucleoli phenotype percent effect. 33.7

Find the measured 5+ nucleoli phenotype percent effect of CAGGGCAGAGGGCACAGGAAUCUGA [hsa-miR-6735-5p] and report it. -26.5

Identify the reported 5+ nucleoli phenotype percent effect for the following entry. GGGGAGCGAGGGGCGGGGC [hsa-miR-6090] 36.1

Report measured 5+ nucleoli phenotype percent effect; entry is CUGGAGAUAUGGAAGAGCUGUGU [hsa-miR-1270] -41.4

Shift focus to the following entry.
Name the recorded 5+ nucleoli phenotype percent effect of the sequence listed here: UGGUCAGAGGCAGCAGGAAAUGA [hsa-miR-6801-5p] 27.3

----------
Tested on: MCF10A
Assay: 5+ nucleoli phenotype percent effect, hitpick validation (relative to siNT 0% and siKIF11 100%); higher = more cells with five or more nucleoli
Condition Description: 20 nM; 72 h
Recorded Metric: 5+ nucleoli phenotype percent effect (%)
Numbers only here, please. The scale is %.

Worked examples, 5 sequences total:
Note 5+ nucleoli phenotype percent effect for the sequence shown: CUCGGCGCGGGGCGCGGGCUCC [hsa-miR-1469] -13.8

Return 5+ nucleoli phenotype percent effect (reported value) for this sequence: CUCUCCCUCUUUACCCACUAG [hsa-miR-6867-3p] 49.1

Please report the measured 5+ nucleoli phenotype percent effect for AAGGAGAUGCUCAGGCAGAU [hsa-miR-6888-5p] -11.7

Item AGGAGCAGUGCCGGCCAAGGCGCC [hsa-miR-6081] : provide 5+ nucleoli phenotype percent effect -16.9

Given the sequence UUUGCAGUAACAGGUGUGAGCA [hsa-miR-6516-5p] , write its reported 5+ nucleoli phenotype percent effect. -19.1

***
Please indicate 5+ nucleoli phenotype percent effect recorded for CUGGCGGCUGUGUCUUCACAG [hsa-miR-6770-3p] 1.2

Give the reported 5+ nucleoli phenotype percent effect for this sequence. GUGUGUGGAAAUGCUUCUGC [hsa-miR-147a] 9.08

Read off the recorded 5+ nucleoli phenotype percent effect for GAGGGCAUGCGCACUUUGUCC [hsa-miR-4761-3p] 14.2

Return value of 5+ nucleoli phenotype percent effect for input AGCUUUUGGGAAUUCAGGUAGU [hsa-miR-3140-3p] , no commentary. -14.2

Let me know recorded 5+ nucleoli phenotype percent effect for ACUCGGCGUGGCGUCGGUCGUG [hsa-miR-1307-3p] , thanks. -13.2

Supply measured 5+ nucleoli phenotype percent effect of ACCUUGGCUCUAGACUGCUUACU [hsa-miR-212-5p] in your reply. 91.8

----------
Overview of reported percent viability across a group of sequences:
System: MCF10A
Assay: percent viability (nuclei count relative to siNT); higher = more viable cells
Condition Description: 20 nM; 72 h
Reply numerically in %, unit not repeated.

Entry UUGGGGGUGAGGUUGGUGUCUGG [hsa-miR-6751-5p] needs its percent viability filled in; supply it. 7.37

Answer with the recorded percent viability for the sequence listed here: UCAGUUCCAGGCCAACCAGGCU [hsa-miR-584-3p] 43.9

State its percent viability: ACAGCACUGCCUGGUCAGA [hsa-miR-383-3p] 54.9

Determine from records and report percent viability for AUGAUCCAGGAACCUGCCUCU [hsa-miR-640] 32.2

Report percent viability for CCCAGCAGGACGGGAGCG [hsa-miR-4530] 111

Return the recorded percent viability value; entry: UAGAGAGGGGAAGGAUGUGAUGU [hsa-miR-6758-5p] 44.4

Name the recorded percent viability of the item UCACUACCUGACAAUACAGU [hsa-miR-4999-3p] in your answer. 52.7

Tell me measured percent viability for UGAGUGUUGUCUACGAGGGCA [hsa-miR-3659] please. 59

# input for lookup
Answer with the recorded percent viability for the sequence listed here: ACGGGGAGUCAGGCAGUGGUGGA [hsa-miR-6777-5p] 28.5

----------
Test system: MCF10A
Assay: percent viability (nuclei count relative to siNT); higher = more viable cells
Condition Description: 20 nM; 72 h
Recorded Metric: percent viability (%)
Give just the numeric value; % need not be written.

Reference set (5 entries):
Report measured percent viability; entry is CAAAGGUAUUUGUGGUUUUUG [hsa-miR-548m] 39.4

Report measured percent viability; entry is UAUGUAACAUGGUCCACUAACU [hsa-miR-379-3p] 89.1

Specify reported percent viability for the sequence shown: UGAGCGCCUCGACGACAGAGCCG [hsa-miR-339-3p] 82.2

Give reported percent viability value for GCAGCAGAGAAUAGGACUACGUC [hsa-miR-922] 108

Hello, please tell me recorded percent viability for this one: UCUGGUGUAUAGCGUUGCUCA [hsa-miR-7978] 27.6

Below: the item to evaluate.
Give me measured percent viability, please, for this sequence: UAGGGGAAAAGUCCUGAUCCGG [hsa-miR-6783-5p] 78.4
